binding signal reference
- targetSystem: TDP-43 (Homo sapiens, UniProt Q13148 1-414)
- Sequence (Q13148 whole entry): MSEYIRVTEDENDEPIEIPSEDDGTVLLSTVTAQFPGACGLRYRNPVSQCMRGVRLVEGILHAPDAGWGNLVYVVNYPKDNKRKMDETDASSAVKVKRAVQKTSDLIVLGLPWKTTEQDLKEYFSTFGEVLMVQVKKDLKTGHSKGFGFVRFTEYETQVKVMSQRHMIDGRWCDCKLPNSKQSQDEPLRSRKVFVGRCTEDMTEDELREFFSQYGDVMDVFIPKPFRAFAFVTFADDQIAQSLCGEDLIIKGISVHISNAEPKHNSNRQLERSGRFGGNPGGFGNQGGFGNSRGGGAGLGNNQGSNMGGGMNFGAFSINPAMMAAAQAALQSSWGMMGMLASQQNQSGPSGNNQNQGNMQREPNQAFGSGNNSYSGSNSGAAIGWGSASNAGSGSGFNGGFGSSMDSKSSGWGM
- assayOverview: RNA Bind-n-Seq with designed 260-mer pool; 25 mM Tris-HCl, 150 mM KCl, 3 mM MgCl2, BSA (printed 500 mg/mL), 20 units/mL SUPERase IN; pH not stated; 500 nM RNA pool, 1 h, 4 C; TDP-43 5, 50, 500 nM; high values mean tight binding
- experimentalConditions: protein: recombinant; tags: SBP (GST cleaved off with PreScission; pGEX-GST-SBP)
Whole data set: some 9,900 sequences, median “r (bound/input frequency ratio)” near 0.7, cut for the highest 2% near 6.5. What follows is part of a selection rich in the highest values, with near analogues and random picks from the rest.

Example entries begin here.
Briefly, binding signal measured for ENSMUSG00000022095.99|Fam160b2 (ssRNA) RNA: GGGAGUUCUACAGUCCGACGAUCGCUUCGAUAUCCGCAUGCUAGCCCCCUCUUCCUGCUCUACCCUCCUGGAGGCUGUUGCAAAAUUCCCAACUGCCUCCUGGCAGAGGCCCAAAGUAUGCUCUGCGCCCAGGCGGGGGCAGCUGCUAACAAGAGCCCUGGCGCAGCUGCAGCCAGGGCAGGCGAGAGCCUUGGAGCUGGGUGCCAGGCUCCAGCUCCAGCUCCAGCUGGUUCCUCUCUGGCGCCUUCUGAACCCGUCUCAGCAAGUCCGAAACACCUGGGCAGAGAGGUCAUUGACCAGGGACUCUUGCGGUCGCACUAGUGUGGAAUUCUCGGGUGUCAAGG : 0.917 R (bound/input frequency ratio)

Briefly, binding signal measured for ENSMUSG00000042529.392|Kcnj12|56:60;127:179;184:189;193:197;209:219;242:247 (ssRNA) RNA: GGGAGUUCUACAGUCCGACGAUCGCUUCGAUAUCCGCAUGCUAGAUCAGUCCGACUUGAGUCCCUGCCCUGCCCUGGUUAUGCAGGCUGUACGACGCACACACCAUCAGUCUGAGGAGUCUGGUGGUAAGUAAGCCUCUGCAGCAGACCCUGUCGGAGGCCAUGGGGGCCACACACACACACACACACACACACACACACACACACACACACACACACACACAACAACACACAGGCACACGAGGUCCCAGGCACACACAUACUGAAUGUCAGUGGCUUGGGUGCACACACGAGAGAGAGAGAGCUCUUGCGGUCGCACUAGUGUGGAAUUCUCGGGUGUCAAGG : 2.98 R (bound/input frequency ratio)

---
Briefly, binding signal measured for ENSMUSG00000042529.394|Kcnj12 (ssRNA) RNA: GGGAGUUCUACAGUCCGACGAUCGCUUCGAUAUCCGCAUGCUAUUGAGUCCCUGCCCUGCCCUGGUUAUGCAGGCUGUACGACGCAGUGUGCAUCAGUCUGAGGAGUCUGGUGGUAAGUAAGCCUCUGCAGCAGACCCUGUCGGAGGCCAUGGGGGCGUGUGUGUGUGUGUGUGUGUGUGUGUGUGUGUGUGUGUGUGUGUGUGUGUGUGAACAUGUGUGAGGGUGUGGAGGUCCCAGGGUGUGUGUAUGUGAAUGUCAGUGGCUUGGGUGCUGUGUGGAGAGAGAGAGAGAGAGAGAGAGAGCUCUUGCGGUCGCACUAGUGUGGAAUUCUCGGGUGUCAAGG : 5.55 R (bound/input frequency ratio)

Briefly, binding signal measured for ENSMUSG00000042529.391|Kcnj12 (ssRNA) RNA: GGGAGUUCUACAGUCCGACGAUCGCUUCGAUAUCCGCAUGCUAAGACAUGAUCAGUCCGACUUGAGUCCCUGCCCUGCCCUGGUUAUGCAGGCUGUACGACGCAGUGUGCAUCAGUCUGAGGAGUCUGGUGGUAAGUAAGCCUCUGCAGCAGACCCUGUCGGAGGCCAUGGGGGCGUGUGUGUGUGUGUGUGUGUGUGUGUGUGUGUGUGUGUGUGUGUGUGUGUGUGAACAUGUGUGAGGGUGUGGAGGUCCCAGGGUGUGUGUAUGUGAAUGUCAGUGGCUUGGGUGCUGUGUGGAGAGAGCUCUUGCGGUCGCACUAGUGUGGAAUUCUCGGGUGUCAAGG : 10.1 R (bound/input frequency ratio)
